# Test system: RPA70 mRNA
# assay.protocol: RPA70 mRNA expression in A549 cells, Northern blot
# Type: cell-based, human
# condition.context: 400 nM oligonucleotide with LIPOFECTIN, RNA 24 h after addition
In the oligonucleotide strings, read from the 5' end, every base follows the letter of its sugar. An asterisk marks phosphorothioate; unmarked linkages are phosphodiester. Other units and linkages are bracketed, terminal groups are in braces. A string of capitals states the bases alone. d = 2'-deoxy (DNA)
Each entry below lists one item and its recorded % mRNA EXPRESSION value.

# substance, experimental.target, % mRNA EXPRESSION
measured = [
    ("ISIS 12791: phosphorothioate oligodeoxynucleotide ATGGGGGGGGGTGGTCACCA, SEQ ID NO 16, 3'-UTR 2287-2306 (antisense; DNA, all phosphorothioate, methylation of C not given here)", "RPA70 mRNA", "88%"),
    ("ISIS 12785: phosphorothioate oligodeoxynucleotide CTGCACTGTGTAGCTAACAT, SEQ ID NO 10, 3'-UTR 2001-2020 (dC*dT*dG*dC*dA*dC*dT*dG*dT*dG*dT*dA*dG*dC*dT*dA*dA*dC*dA*dT; antisense)", "RPA70 mRNA", "20%"),
]
